target_or_system: Neu5Ac(a2-3)GalNAc
assay_method_text: glycan array binding signal (z-score within array); higher = stronger binding
measurement_parameters: glycan notation: IUPAC condensed, linker removed
This excerpt belongs to a sample that is enriched for the strongest signals.
observable: glycan array binding signal (z-score)
// no unit string in output, number only

Give the measured glycan array binding signal (z-score) of DBA (Dolichos biflorus) (protein) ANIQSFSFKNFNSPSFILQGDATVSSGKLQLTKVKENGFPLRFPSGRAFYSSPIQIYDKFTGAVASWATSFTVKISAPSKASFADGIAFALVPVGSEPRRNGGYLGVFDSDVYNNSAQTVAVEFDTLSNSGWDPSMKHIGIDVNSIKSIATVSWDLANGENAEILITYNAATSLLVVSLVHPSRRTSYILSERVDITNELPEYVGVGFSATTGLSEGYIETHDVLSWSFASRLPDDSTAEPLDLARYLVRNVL . -0.165

SP15308A-bot-339-19-339 (Bacteroides ovatus) (protein) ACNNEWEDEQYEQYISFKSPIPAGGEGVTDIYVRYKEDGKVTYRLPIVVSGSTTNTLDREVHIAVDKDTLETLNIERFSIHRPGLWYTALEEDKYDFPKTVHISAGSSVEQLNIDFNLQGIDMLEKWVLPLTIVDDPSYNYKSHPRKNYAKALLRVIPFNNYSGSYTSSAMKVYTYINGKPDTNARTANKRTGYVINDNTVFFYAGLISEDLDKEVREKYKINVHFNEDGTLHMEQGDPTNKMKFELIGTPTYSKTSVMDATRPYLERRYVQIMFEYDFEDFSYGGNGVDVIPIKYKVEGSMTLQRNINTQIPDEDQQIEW , same question. 0.234

Cohesin-marm-DC-ASGPR-CRD (protein) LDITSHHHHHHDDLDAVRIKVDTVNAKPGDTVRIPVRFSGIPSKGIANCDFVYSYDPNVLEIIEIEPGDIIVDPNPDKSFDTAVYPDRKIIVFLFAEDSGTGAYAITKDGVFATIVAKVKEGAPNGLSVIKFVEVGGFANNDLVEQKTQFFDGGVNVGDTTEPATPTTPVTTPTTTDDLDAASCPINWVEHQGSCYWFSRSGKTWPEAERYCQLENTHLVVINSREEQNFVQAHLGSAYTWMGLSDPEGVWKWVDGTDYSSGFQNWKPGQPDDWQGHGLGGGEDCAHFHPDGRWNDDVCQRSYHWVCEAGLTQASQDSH , same question. -0.435

CVN (Nostoc ellipsosporum), P81180 (protein) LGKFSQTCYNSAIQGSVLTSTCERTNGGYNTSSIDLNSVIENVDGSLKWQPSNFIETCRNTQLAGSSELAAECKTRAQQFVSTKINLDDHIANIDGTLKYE , same question. -0.303

pTFF2 (Sus scrofa), P01359 (protein) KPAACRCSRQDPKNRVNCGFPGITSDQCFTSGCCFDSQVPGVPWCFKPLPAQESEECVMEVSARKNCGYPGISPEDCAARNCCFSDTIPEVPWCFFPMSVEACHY , same question. 1.05

GNL (Galanthus nivalis) (protein) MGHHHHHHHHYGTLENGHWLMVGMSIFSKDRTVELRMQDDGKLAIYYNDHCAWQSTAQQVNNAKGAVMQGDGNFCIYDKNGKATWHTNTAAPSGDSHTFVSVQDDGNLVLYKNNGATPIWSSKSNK , same question. -0.251
